biological target: UniProt:P53987; assay: […]lactate uptake inhibition in RBE4 rat brain endothelial cells (only MCT1 isoform expressed)
Sequence (P53987 whole entry, canonical isoform): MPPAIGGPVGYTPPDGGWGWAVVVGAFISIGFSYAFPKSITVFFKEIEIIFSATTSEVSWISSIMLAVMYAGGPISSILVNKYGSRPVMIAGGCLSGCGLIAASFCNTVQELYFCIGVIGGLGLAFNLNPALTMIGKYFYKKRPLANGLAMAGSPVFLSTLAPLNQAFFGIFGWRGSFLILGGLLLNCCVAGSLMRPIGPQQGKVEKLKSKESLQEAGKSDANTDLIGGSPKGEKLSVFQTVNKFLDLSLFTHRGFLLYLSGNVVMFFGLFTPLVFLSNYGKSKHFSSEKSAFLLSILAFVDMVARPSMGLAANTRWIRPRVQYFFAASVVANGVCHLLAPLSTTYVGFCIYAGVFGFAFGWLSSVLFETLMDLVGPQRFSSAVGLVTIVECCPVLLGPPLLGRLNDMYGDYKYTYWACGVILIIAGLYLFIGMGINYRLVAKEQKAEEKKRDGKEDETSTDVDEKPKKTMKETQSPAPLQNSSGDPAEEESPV
measured.property: IC50 (nM)

(a) COc1cc(N(c2ccccc2)c2cccc(F)n2)ccc1/C=C(\C#N)C(=O)O
(b) CCCN(c1ccc(/C=C(\C#N)C(=O)O)c(OC)c1)c1cccc(F)n1
Task item: Would you let me know which has the greater IC50 value, a or b ? Please reply using the label of the selected record.
Reply: a
(a: 274 nM, b: 118 nM)
